runDescription: NCI Yeast Anticancer Drug Screen. Data for the bub3 strain (AID 167)
runConditions: S. cerevisiae bub3 mutant strain, at 50.0 µM, hits give high values
About 79,000 compounds went through this panel and 15% of them were active in at least one assay; those are over-represented in the sample as a whole. The source made the active and inactive calls. Cut-off read from the data, not from the text of the source: active = growth inhibition above about 70%; inactive = the rest.
parameterMeasured: growth inhibition

molecule=CC(C)(C)S(=O)(=O)CCCCl testvalue="13.2% (inactive)"
molecule=CCCS(=O)(=O)N(CC)CC testvalue="-5.65% (inactive)"
molecule=N=Cc1ccccc1O testvalue="2.9% (inactive)"
molecule=CCc1cc(CC)n2cnnc2n1 testvalue="7.2% (inactive)"
molecule="CCCCC(O)CNc1ccccc1 (stereo not drawn)" testvalue="9.65% (inactive)"
molecule=CCC(CC)COC(=O)c1ccccc1C(=O)OCC(CC)CC testvalue="-2.75% (inactive)"
molecule=Cc1c2c(=O)oc3ccc(Cl)cc3c2nn1-c1ccccc1 testvalue="-25.7% (inactive)"
molecule="CC1OC(OC23C(=O)CC(C)(O)CC2(O)C=CC2=C3C(=O)c3ccc(C4CC(OC5CCC(OC6CC(O)C(O)C(C)O6)C(C)O5)C(O)C(C)O4)c(O)c3C2=O)CCC1O (stereo not drawn)" testvalue="-0.25% (inactive)"
